target_desc: Serine/threonine-protein kinase B-raf (Homo sapiens, UniProt P15056, V600E)
experiment_summary: Inhibition of BRAF V600E mutant by ELISA
readout: IC50 (µM)
Answers are plain numbers, in µM.

// below: answered molecules
>  <smiles_notation>
Cc1ccc(N2C(=O)/C(=C\c3ccc(-c4ccc(F)cc4)o3)C(=O)NC2=S)cc1

>  <target_desc>
Serine/threonine-protein kinase B-raf (Homo sapiens, UniProt P15056, V600E)

>  <result_unit>
µM

>  <IC50>
4.11

$$$$
>  <smiles_notation>
O=C1NC(=S)NC(=O)C1=Cc1ccc(-c2cccc([N+](=O)[O-])c2)o1

>  <target_desc>
Serine/threonine-protein kinase B-raf (Homo sapiens, UniProt P15056, V600E)

>  <result_unit>
µM

>  <IC50>
0.83

$$$$
>  <smiles_notation>
Cc1ccc(N2C(=O)/C(=C\c3ccc(-c4ccc(C(=O)O)c(Cl)c4)o3)C(=O)NC2=S)cc1

>  <target_desc>
Serine/threonine-protein kinase B-raf (Homo sapiens, UniProt P15056, V600E)

>  <result_unit>
µM

>  <IC50>
3.24

$$$$
>  <smiles_notation>
COC(=O)c1ccccc1-c1ccc(/C=C2/C(=O)NC(=S)N(c3ccc(C)cc3)C2=O)o1

>  <target_desc>
Serine/threonine-protein kinase B-raf (Homo sapiens, UniProt P15056, V600E)

>  <result_unit>
µM

>  <IC50>
1.65

$$$$

Hey, quick one: what's IC50 for each of these?
1. Cc1c(Cl)cccc1N1C(=O)/C(=C\c2ccc(-c3ccc(C(=O)O)cc3)o2)C(=O)NC1=S
2. CS(=O)(=O)N(CCC#N)Cc1ccc(/C=C2/C(=O)NC(=S)N(c3ccc(Cl)c(Cl)c3)C2=O)o1
3. COc1cccc(N2C(=O)/C(=C\c3ccc(CN(CCC#N)S(C)(=O)=O)o3)C(=O)NC2=S)c1
4. COc1ccc(C=C2C(=O)NC(=S)NC2=O)cc1OC(=O)c1ccccc1
5. Cc1ccc(N2C(=O)/C(=C\c3ccc(-c4cccc(C(=O)O)c4)o3)C(=O)NC2=S)cc1

2.49
0.82
1.84
4.01
4.02

###

System: Serine/threonine-protein kinase B-raf (Homo sapiens), P15056 [V600E]
Sequence (P15056 whole entry V600E): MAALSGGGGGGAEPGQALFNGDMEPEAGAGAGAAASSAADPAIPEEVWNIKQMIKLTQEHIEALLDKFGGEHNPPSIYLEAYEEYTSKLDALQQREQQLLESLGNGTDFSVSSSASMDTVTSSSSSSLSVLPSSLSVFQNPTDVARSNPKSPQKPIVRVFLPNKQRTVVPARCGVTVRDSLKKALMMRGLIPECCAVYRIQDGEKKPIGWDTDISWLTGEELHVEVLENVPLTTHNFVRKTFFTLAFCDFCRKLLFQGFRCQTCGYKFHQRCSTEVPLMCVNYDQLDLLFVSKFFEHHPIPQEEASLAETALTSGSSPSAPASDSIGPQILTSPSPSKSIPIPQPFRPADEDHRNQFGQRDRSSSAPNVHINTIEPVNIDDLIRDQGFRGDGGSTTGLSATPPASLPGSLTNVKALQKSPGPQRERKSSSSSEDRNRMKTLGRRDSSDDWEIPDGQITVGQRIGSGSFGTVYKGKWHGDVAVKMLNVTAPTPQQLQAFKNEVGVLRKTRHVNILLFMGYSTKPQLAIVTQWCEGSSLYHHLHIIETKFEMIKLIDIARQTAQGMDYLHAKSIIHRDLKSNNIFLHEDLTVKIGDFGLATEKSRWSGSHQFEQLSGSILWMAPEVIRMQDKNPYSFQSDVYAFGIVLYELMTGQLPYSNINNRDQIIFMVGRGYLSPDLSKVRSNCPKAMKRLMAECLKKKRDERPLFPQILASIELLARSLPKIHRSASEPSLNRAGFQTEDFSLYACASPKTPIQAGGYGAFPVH
experiment_summary: Inhibition of BRAF V600E mutant at 10 uM by ELISA
readout: inhibition (%)
Numbers only, in %.

Consider the worked cases shown below.
>  <smiles_notation>
Cc1ccc(N2C(=O)/C(=C\c3ccc(-c4ccc(C(=O)O)cc4)o3)C(=O)NC2=S)cc1

>  <result_unit>
%

>  <inhibition>
97

$$$$
>  <smiles_notation>
CS(=O)(=O)N(CCC#N)Cc1ccc(/C=C2/C(=O)NC(=S)N(c3ccc(Br)cc3)C2=O)o1

>  <result_unit>
%

>  <inhibition>
96

$$$$
>  <smiles_notation>
COc1cc(C=C2C(=O)NC(=S)NC2=O)ccc1OC(F)F

>  <result_unit>
%

>  <inhibition>
17

$$$$
>  <smiles_notation>
CCOC(=O)c1ccccc1-c1ccc(/C=C2/C(=O)NC(=S)N(c3ccc(C)cc3)C2=O)o1

>  <result_unit>
%

>  <inhibition>
88

$$$$
>  <smiles_notation>
O=C1NC(=S)N(c2ccc(Br)cc2)C(=O)/C1=C\c1ccc(-c2ccccc2C(=O)O)o1

>  <result_unit>
%

>  <inhibition>
100

$$$$
>  <smiles_notation>
Cc1c(Cl)cccc1N1C(=O)/C(=C\c2ccc(-c3ccc(C(=O)O)cc3)o2)C(=O)NC1=S

>  <result_unit>
%

>  <inhibition>
100

$$$$

Here is the next item to consider.
Check the records and state inhibition for O=C1NC(=S)NC(=O)C1=Cc1cccc(OC(=O)c2cccc(F)c2)c1
19

###

Test system: Serine/threonine-protein kinase B-raf (Homo sapiens), P15056 [V600E]
experiment_summary: Inhibition of BRAF V600E mutant at 1 uM by ELISA
Assign inhibition to each entry below.
Answers are plain numbers, in %.

>  <smiles_notation>
CS(=O)(=O)N(CCC#N)Cc1ccc(/C=C2/C(=O)NC(=S)N(c3ccc(Cl)c(Cl)c3)C2=O)o1

>  <reported_value>
60

$$$$
>  <smiles_notation>
O=C1NC(=S)N(c2ccc(Br)cc2)C(=O)/C1=C\c1ccc(-c2cccc(C(=O)O)c2)o1

>  <reported_value>
43

$$$$
>  <smiles_notation>
COc1ccc(C=C2C(=O)NC(=S)NC2=O)cc1OCc1ccc(Br)cc1

>  <reported_value>
12

$$$$

Report inhibition for each item below.
1. CCOc1ccc(C=C2C(=O)NC(=S)NC2=O)cc1Cl
2. O=C1NC(=S)NC(=O)C1=Cc1cccc(OC(=O)c2cccc(F)c2)c1
3. COc1ccc(C=C2C(=O)NC(=S)NC2=O)cc1OC(=O)c1cccc(Cl)c1
4. CC(C)COC(=O)c1ccc(-c2ccc(C=C3C(=O)NC(=S)NC3=O)o2)cc1

1. 12
2. 17
3. 9
4. 31

Look at each compound and report its inhibition.
1. CCOc1cc(C=C2C(=O)NC(=S)NC2=O)ccc1OCC(=O)Nc1cccc(C)c1
2. Cc1ccc(Cl)cc1-c1ccc(C=C2C(=O)NC(=S)NC2=O)o1

1. 23
2. 54

###

Test system: Serine/threonine-protein kinase B-raf (Homo sapiens), P15056 [V600E]
experiment_summary: Inhibition of BRAF V600E mutant at 1 uM by ELISA
Think of 40% as a floor: if inhibition stands on it or above, it is class 1; beneath it, class 0.

>  <smiles_notation>
O=C1NC(=S)N(c2ccc(Br)cc2)C(=O)/C1=C\c1ccc(-c2ccccc2C(=O)O)o1

>  <group_label>
class 0

$$$$

Form field: inhibition at least 40%? Entry: CS(=O)(=O)N(CCC#N)Cc1ccc(/C=C2/C(=O)NC(=S)N(c3ccc(Br)cc3)C2=O)o1
class 1

Please indicate if the recorded inhibition for COc1cc(C=C2C(=O)NC(=S)NC2=O)ccc1OCCO meets or exceeds 40%.
class 0

Reported inhibition at or above 40%? CCOc1cc(C=C2C(=O)NC(=S)NC2=O)ccc1O
class 0

###

So I've got a bunch of compounds here, and I need their inhibition values.
System: Serine/threonine-protein kinase B-raf (Homo sapiens), P15056 [V600E]
experiment_summary: Inhibition of BRAF V600E mutant at 1 uM by ELISA
One number for each entry, in %.

Give one value of inhibition per listed compound.
1. O=C1NC(=S)N(c2ccc(Br)cc2)C(=O)/C1=C\c1ccc(-c2ccc(C(=O)O)cc2)o1
2. N#Cc1ccccc1-c1ccc(C=C2C(=O)NC(=S)NC2=O)o1
3. O=C1NC(=S)N(c2cccc(Cl)c2Cl)C(=O)/C1=C\c1ccc(-c2ccc(C(=O)O)cc2)o1
4. COC(=O)c1ccccc1-c1ccc(/C=C2/C(=O)NC(=S)N(c3ccc(C)cc3)C2=O)o1
5. O=C1NC(=S)N(c2ccc(Br)cc2)C(=O)/C1=C\c1ccc(-c2ccc(C(=O)O)c(Cl)c2)o1
6. Cc1ccc(N2C(=O)/C(=C\c3ccc(-c4cccc(C(=O)O)c4)o3)C(=O)NC2=S)cc1
7. Cc1c(Cl)cccc1N1C(=O)/C(=C\c2ccc(-c3ccc(C(=O)O)cc3)o2)C(=O)NC1=S
8. O=C1NC(=S)NC(=O)C1=Cc1ccc(-c2ccccc2[N+](=O)[O-])o1

38
60
46
37
28
33
38
55

Report inhibition for every entry below.
1. CCOC(=O)c1ccccc1-c1ccc(/C=C2/C(=O)NC(=S)N(c3ccc(C)cc3)C2=O)o1
2. O=C1NC(=S)NC(=O)C1=Cc1ccc(OCC(=O)N2CCCC2)cc1

[56, 9]

Hey, can you go through the list below and give me inhibition for every item?
1. CCOc1ccc(N2C(=O)/C(=C\c3ccc(CN(CCC#N)S(C)(=O)=O)o3)C(=O)NC2=S)cc1
2. O=C1NC(=S)NC(=O)C1=Cc1ccc(-c2ccc([N+](=O)[O-])cc2)o1
3. Cc1ccc(N2C(=O)/C(=C\c3ccc(-c4ccc(C(=O)O)cc4)o3)C(=O)NC2=S)cc1
4. O=C1NC(=S)NC(=O)C1=Cc1ccc(OCc2ccccc2)c(Cl)c1

1. 43
2. 59
3. 35
4. 31
